Listed here are compounds together with their documented inhibition at 0.3 µM.
Molecular target: P2X7 receptor (Homo sapiens, UniProt Q99572)
Construct: host or cells: THP-1 cells differentiated with LPS and IFN-γ
Sequence (Q99572 whole entry): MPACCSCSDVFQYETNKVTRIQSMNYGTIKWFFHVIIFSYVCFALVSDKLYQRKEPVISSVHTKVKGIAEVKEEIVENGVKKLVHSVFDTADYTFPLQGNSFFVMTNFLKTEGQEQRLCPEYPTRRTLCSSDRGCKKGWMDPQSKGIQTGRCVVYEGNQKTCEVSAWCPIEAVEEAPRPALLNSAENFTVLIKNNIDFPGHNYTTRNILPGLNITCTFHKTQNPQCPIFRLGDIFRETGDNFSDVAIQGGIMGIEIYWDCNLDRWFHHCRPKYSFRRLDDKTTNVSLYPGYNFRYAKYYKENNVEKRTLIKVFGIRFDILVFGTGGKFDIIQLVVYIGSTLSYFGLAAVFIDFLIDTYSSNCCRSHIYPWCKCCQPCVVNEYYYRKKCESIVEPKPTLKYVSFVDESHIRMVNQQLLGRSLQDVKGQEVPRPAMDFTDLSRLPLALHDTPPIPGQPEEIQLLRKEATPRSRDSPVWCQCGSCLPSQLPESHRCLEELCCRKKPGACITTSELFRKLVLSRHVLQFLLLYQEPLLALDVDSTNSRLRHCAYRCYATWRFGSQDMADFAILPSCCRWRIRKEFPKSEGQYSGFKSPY
Assay: IL-1β release assay in differentiated THP-1 cells stimulated with BzATP (Example 9)
Type: cell-based
Details: 0.3 μM compound (symbols +); differentiated THP-1 cells, BzATP 250 uM; read-out: IL-1β % Inhib. @ 0.3 or 0.1 uM
Protocol: THP-1 cells (ATCC Cat #285-IF-100) are plated in 96 well plates at a concentration of 200,000 cells per well and allowed to differentiate in RPMI-1640 media (ATCC Cat #30-2001) containing 10% FBS, 100 IU/mL penicillin, 100 ug/mL streptomycin, 100 ng/mL LPS and 100 ng/mL IFN-γ for 16 hours. […] 30 uL of cell supernatant is then collected and IL-1β levels determined via ELISA (R&D systems Cat. #HSLB50) according to manufacturer's recommendations using the Tecan Safire plate reader. […]

Cc1ccc(CC(=O)Nc2cccc3c(=O)n(CC4(O)CCCCC4)ccc23)cc1    26 to 50%
CCOc1ccc(CC(=O)Nc2cccc3c(=O)n(CC4(O)CCCCC4)ccc23)cc1    0 to 25%
COc1c(C)cc(C(=O)Nc2cccc3c(=O)n(CC4(O)CCCCC4)ccc23)cc1C    0 to 25%
O=C(Cc1ccc(Cl)cc1)Nc1cccc2c(=O)n(CCO)ccc12    26 to 50%
O=C(CCc1cc(C(F)(F)F)ccc1C(F)(F)F)Nc1cccc2c(=O)n(CCO)ccc12    > 76%

Form: compound = CC(C)Cc1ccc(C(=O)Nc2cccc3c(=O)n(CC4(O)CCCCC4)ccc23)cc1 ; inhibition at 0.3 µM = 26 to 50%
